- system tested: PLCG1(SH2dom.C-term.) (Homo sapiens, UniProt P19174)
- Construct: SH2dom.C-term. denotes SH2 domain closest to C-terminus of protein; made in house; host or cells: HEK293 (transient transfection, unpurified extract)
- Sequence (P19174 668-756 limits assumed): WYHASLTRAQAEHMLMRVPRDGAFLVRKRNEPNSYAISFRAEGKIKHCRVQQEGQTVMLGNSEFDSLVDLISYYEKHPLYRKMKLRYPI
- measurement notes: biochemical
- Type: binding
- experimental setup: read-out: percent of DMSO vehicle control
Non-standard residues stand in square brackets, D forms with d. Residues, ends and D or L forms follow the SMILES beside them. *: point of attachment. pY = N[C@@H](Cc1ccc(OP(=O)(O)O)cc1)C(=O)O; Caffeoyl = O=C(/C=C/c1ccc(O)c(O)c1)*
A collection of molecules and their measured remaining activity at 10 µM

# molecule, remaining activity at 10 µM
rows = [
    ("CC[C@H](C)[C@H](NC(=O)[C@H](CCC(=O)O)NC(=O)[C@H](CCC(=O)O)NC(=O)[C@H](Cc1ccc(OP(=O)(O)O)cc1)NC(=O)/C=C/c1ccc(O)c(O)c1)C(=O)N[C@@H](CCC(=O)O)C(=O)O [Caffeic acid-pYEEIE] (Caffeoyl-[pY]EEIE-OH)", "0%"),
    ("CC(=O)N[C@@H](Cc1ccc(CP(=O)(O)O)cc1)C(=O)NC1(C(=O)N[C@@H](CC(N)=O)C(=O)NCCCc2c(O)ccc3ccccc23)CCCCC1", "96.8%"),
    ("CC(=O)N1CC[C@H]2CC[C@@H](C(=O)N[C@@H](CCC(N)=O)C(=O)NC(c3ccccc3)c3ccccc3)N2C(=O)[C@@H](NC(=O)c2cc3cc(C(F)(F)P(=O)(O)O)ccc3[nH]2)C1", "98%"),
    ("NC(=O)CC[C@H](NC(=O)[C@@H]1CC[C@@H]2CCN(C(=O)CCCCCC#Cc3cccc4c3CN(C3CCC(=O)NC3=O)C4=O)C[C@H](NC(=O)c3cc4cc(C(F)(F)P(=O)(O)O)ccc4[nH]3)C(=O)N21)C(=O)NC(c1ccccc1)c1ccccc1 (stereo partly shown)", "85.7%"),
]

====

- system tested: MATK (Homo sapiens, UniProt P42679)
- Construct: the DNA-tagged SH2 domain concentrations used in this study were <0.1 nM; made in house; host or cells: HEK293 (transient transfection, unpurified extract)
- Sequence (P42679 122-211 limits assumed): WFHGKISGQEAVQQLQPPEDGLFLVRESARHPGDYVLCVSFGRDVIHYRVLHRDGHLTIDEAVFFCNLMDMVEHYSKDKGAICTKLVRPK
- measurement notes: biochemical
- Type: binding
- experimental setup: read-out: percent of DMSO vehicle control
Non-standard residues stand in square brackets, D forms with d. Residues, ends and D or L forms follow the SMILES beside them. *: point of attachment. pY = N[C@@H](Cc1ccc(OP(=O)(O)O)cc1)C(=O)O; Caffeoyl = O=C(/C=C/c1ccc(O)c(O)c1)*

# compound, system tested, unit annotation, percent of DMSO vehicle control at 10 µM
rows = [
    ("CC(=O)N1CC[C@H]2CC[C@@H](C(=O)N[C@@H](CCC(N)=O)C(=O)NC(c3ccccc3)c3ccccc3)N2C(=O)[C@@H](NC(=O)c2cc3cc(C(F)(F)P(=O)(O)O)ccc3[nH]2)C1", "MATK (Homo sapiens, UniProt P42679)", "%", 163),
    ("CC[C@H](C)[C@H](NC(=O)[C@H](CCC(=O)O)NC(=O)[C@H](CCC(=O)O)NC(=O)[C@H](Cc1ccc(OP(=O)(O)O)cc1)NC(=O)/C=C/c1ccc(O)c(O)c1)C(=O)N[C@@H](CCC(=O)O)C(=O)O [Caffeic acid-pYEEIE] (Caffeoyl-[pY]EEIE-OH)", "MATK (Homo sapiens, UniProt P42679)", "%", 83.8),
    ("CC(=O)N[C@@H](Cc1ccc(CP(=O)(O)O)cc1)C(=O)NC1(C(=O)N[C@@H](CC(N)=O)C(=O)NCCCc2c(O)ccc3ccccc23)CCCCC1", "MATK (Homo sapiens, UniProt P42679)", "%", 153),
    ("NC(=O)CC[C@H](NC(=O)[C@@H]1CC[C@@H]2CCN(C(=O)CCCCCC#Cc3cccc4c3CN(C3CCC(=O)NC3=O)C4=O)C[C@H](NC(=O)c3cc4cc(C(F)(F)P(=O)(O)O)ccc4[nH]3)C(=O)N21)C(=O)NC(c1ccccc1)c1ccccc1 (stereo partly shown)", "MATK (Homo sapiens, UniProt P42679)", "%", 159),
]

====

- system tested: STAT3(N647I)-nonphosphorylated (Homo sapiens, UniProt P40763, N647I)
- Construct: made in house; host or cells: HEK293 (transient transfection), unpurified extract, dephosphorylated by endogenous phosphatases
- Sequence (P40763 whole entry N647I): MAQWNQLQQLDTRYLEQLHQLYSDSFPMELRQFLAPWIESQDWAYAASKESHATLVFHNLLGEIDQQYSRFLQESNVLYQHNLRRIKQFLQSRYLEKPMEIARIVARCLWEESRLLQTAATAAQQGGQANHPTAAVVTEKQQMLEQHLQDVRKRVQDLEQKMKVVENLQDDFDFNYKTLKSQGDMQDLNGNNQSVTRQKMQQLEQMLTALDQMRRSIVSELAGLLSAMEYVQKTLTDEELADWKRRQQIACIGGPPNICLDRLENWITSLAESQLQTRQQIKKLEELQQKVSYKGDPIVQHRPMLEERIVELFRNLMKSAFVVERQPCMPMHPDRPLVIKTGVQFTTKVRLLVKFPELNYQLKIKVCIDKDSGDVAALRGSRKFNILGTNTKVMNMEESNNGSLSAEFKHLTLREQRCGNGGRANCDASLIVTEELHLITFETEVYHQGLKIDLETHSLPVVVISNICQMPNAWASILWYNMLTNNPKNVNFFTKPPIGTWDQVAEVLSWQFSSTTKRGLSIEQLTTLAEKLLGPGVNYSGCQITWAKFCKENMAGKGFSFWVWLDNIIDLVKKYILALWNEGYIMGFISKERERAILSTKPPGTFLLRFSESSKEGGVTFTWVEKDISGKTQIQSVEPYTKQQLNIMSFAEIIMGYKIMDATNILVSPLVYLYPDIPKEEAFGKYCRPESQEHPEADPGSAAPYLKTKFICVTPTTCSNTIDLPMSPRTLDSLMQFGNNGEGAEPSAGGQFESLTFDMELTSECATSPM
- measurement notes: biochemical
- Format: binding
- experimental setup: primary screen, 10 μM; read-out: percent of DMSO vehicle control
Quick reference for remaining activity at 10 µM among some molecules

# molecule smiles, unit annotation, remaining activity at 10 µM
measured = [
    ("O=C(COc1ccc2cc(C(=O)Nc3ccccc3)ccc2c1)NCc1ccc(OP(=O)(O)O)c(OP(=O)(O)O)c1", "%", 78.6),
    ("O=C(CCl)Nc1cccc(CNC(=O)[C@H](Cc2ccc(OP(=O)(O)O)cc2)NC(=O)Cc2ccc(F)cc2)c1", "%", 81.2),
    ("CC(C)(C)[C@H](NC(=O)/C=C/c1ccc(OP(=O)(O)O)cc1)C(=O)N1CCC[C@H]1C(=O)N(c1ccccc1)c1ccc(I)cc1", "%", 2.1),
    ("C/C(=C\\C(=O)N[C@H](C(=O)N1CCC[C@H]1C(=O)N(c1ccccc1)c1ccc(I)cc1)C(C)(C)C)c1ccc(OP(=O)(O)O)cc1", "%", 0),
]

====

- system tested: STAT5B (Homo sapiens)
- Construct: made in house; host or cells: HEK293 (transient transfection), unpurified extract
- Sequence (P51692 whole entry): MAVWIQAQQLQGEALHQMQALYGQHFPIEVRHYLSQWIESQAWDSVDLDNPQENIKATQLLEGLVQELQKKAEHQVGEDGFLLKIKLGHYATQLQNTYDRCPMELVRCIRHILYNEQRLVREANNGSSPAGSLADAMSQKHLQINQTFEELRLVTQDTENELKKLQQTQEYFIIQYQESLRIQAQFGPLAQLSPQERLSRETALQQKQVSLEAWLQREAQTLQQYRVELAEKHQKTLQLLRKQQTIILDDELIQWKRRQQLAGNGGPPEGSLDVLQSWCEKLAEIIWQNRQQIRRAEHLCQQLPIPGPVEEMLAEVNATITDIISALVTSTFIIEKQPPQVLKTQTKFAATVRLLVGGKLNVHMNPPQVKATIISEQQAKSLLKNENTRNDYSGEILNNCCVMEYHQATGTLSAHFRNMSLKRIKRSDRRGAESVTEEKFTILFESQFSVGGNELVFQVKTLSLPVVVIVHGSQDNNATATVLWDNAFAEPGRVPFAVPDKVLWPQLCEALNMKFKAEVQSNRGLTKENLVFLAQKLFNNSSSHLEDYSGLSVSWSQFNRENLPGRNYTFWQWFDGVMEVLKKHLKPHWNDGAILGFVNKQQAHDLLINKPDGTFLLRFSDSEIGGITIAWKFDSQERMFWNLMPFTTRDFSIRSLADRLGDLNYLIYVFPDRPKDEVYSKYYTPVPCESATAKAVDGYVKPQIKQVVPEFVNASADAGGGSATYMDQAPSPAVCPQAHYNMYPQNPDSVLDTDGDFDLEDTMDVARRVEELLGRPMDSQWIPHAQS
- measurement notes: biochemical
- Format: binding
- experimental setup: read-out: percent of DMSO vehicle control
Non-standard residues stand in square brackets, D forms with d. Residues, ends and D or L forms follow the SMILES beside them. *: point of attachment. pY = N[C@@H](Cc1ccc(OP(=O)(O)O)cc1)C(=O)O; Caffeoyl = O=C(/C=C/c1ccc(O)c(O)c1)*
reported endpoint: percent of DMSO vehicle control at 10 µM (%)

# molecule, reported endpoint, recorded measurement
records = [
    ("NC(=O)CC[C@H](NC(=O)[C@@H]1CC[C@@H]2CCN(C(=O)CCCCCC#Cc3cccc4c3CN(C3CCC(=O)NC3=O)C4=O)C[C@H](NC(=O)c3cc4cc(C(F)(F)P(=O)(O)O)ccc4[nH]3)C(=O)N21)C(=O)NC(c1ccccc1)c1ccccc1 (stereo partly shown) [SD-36]", "percent of DMSO vehicle control at 10 µM", 5.7),
    ("CC(=O)N[C@@H](Cc1ccc(CP(=O)(O)O)cc1)C(=O)NC1(C(=O)N[C@@H](CC(N)=O)C(=O)NCCCc2c(O)ccc3ccccc23)CCCCC1 [CGP78850]", "percent of DMSO vehicle control at 10 µM", 89.6),
    ("CC[C@H](C)[C@H](NC(=O)[C@H](CCC(=O)O)NC(=O)[C@H](CCC(=O)O)NC(=O)[C@H](Cc1ccc(OP(=O)(O)O)cc1)NC(=O)/C=C/c1ccc(O)c(O)c1)C(=O)N[C@@H](CCC(=O)O)C(=O)O [Caffeic acid-pYEEIE] (Caffeoyl-[pY]EEIE-OH)", "percent of DMSO vehicle control at 10 µM", 19.3),
    ("CC(=O)N1CC[C@H]2CC[C@@H](C(=O)N[C@@H](CCC(N)=O)C(=O)NC(c3ccccc3)c3ccccc3)N2C(=O)[C@@H](NC(=O)c2cc3cc(C(F)(F)P(=O)(O)O)ccc3[nH]2)C1 [SI-109]", "percent of DMSO vehicle control at 10 µM", 109),
]

====

- system tested: TNS3 (Homo sapiens)
- Construct: made in house; host or cells: HEK293 (transient transfection), unpurified extract
- Sequence (Q68CZ2 1-1445): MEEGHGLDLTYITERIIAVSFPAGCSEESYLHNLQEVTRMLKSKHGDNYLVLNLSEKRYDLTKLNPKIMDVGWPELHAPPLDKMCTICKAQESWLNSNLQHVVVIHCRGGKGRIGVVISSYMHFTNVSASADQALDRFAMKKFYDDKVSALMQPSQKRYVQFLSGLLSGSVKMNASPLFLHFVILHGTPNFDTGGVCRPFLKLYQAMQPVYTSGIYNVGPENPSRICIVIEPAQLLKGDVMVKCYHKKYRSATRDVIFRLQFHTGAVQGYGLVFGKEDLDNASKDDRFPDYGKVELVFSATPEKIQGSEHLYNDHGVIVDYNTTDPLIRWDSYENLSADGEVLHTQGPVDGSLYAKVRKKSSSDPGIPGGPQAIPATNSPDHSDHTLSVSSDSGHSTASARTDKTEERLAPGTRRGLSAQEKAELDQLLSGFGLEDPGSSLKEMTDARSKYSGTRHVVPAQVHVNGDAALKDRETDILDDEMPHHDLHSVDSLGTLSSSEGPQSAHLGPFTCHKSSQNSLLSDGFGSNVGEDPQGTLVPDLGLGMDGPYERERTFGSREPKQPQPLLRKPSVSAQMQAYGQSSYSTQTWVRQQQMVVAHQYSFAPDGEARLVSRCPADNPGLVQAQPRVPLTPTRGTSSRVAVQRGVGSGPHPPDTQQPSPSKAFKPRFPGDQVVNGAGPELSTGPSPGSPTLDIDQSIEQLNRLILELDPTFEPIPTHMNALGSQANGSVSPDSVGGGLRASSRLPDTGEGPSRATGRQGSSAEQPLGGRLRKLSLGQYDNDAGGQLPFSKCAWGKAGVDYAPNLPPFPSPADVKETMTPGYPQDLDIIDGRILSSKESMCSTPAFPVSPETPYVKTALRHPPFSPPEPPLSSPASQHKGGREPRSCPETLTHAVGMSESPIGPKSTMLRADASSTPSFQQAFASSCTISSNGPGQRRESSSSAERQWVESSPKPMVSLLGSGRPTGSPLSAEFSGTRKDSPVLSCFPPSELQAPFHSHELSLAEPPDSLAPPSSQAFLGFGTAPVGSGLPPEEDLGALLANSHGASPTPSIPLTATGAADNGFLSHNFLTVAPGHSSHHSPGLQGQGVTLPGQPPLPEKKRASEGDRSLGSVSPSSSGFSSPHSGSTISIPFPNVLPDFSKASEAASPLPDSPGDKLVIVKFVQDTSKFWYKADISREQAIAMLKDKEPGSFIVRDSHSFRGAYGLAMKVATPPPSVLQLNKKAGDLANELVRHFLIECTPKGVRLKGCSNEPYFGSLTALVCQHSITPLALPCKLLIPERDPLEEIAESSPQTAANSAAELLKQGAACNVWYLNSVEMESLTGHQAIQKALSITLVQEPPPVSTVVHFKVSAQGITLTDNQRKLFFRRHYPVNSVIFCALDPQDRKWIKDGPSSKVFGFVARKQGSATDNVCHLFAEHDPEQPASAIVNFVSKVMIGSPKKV
- measurement notes: biochemical
- Type: binding
- experimental setup: primary screen, 10 μM; read-out: percent of DMSO vehicle control
# maps each entry to its remaining activity at 10 µM

# molecule smiles, remaining activity at 10 µM (%)
records = [
    ("O=C(CCl)Nc1cccc(CNC(=O)[C@H](Cc2ccc(OP(=O)(O)O)cc2)NC(=O)Cc2ccc(F)cc2)c1", 48.5),
    ("C/C(=C\\C(=O)N[C@H](C(=O)N1CCC[C@H]1C(=O)N(c1ccccc1)c1ccc(I)cc1)C(C)(C)C)c1ccc(OP(=O)(O)O)cc1", 57),
    ("CC(C)(C)[C@H](NC(=O)/C=C/c1ccc(OP(=O)(O)O)cc1)C(=O)N1CCC[C@H]1C(=O)N(c1ccccc1)c1ccc(I)cc1", 55.6),
    ("O=C(COc1ccc2cc(C(=O)Nc3ccccc3)ccc2c1)NCc1ccc(OP(=O)(O)O)c(OP(=O)(O)O)c1", 77.8),
]

Provenance of the data: paper PMC12951562
